# TGT: T1, human TrkA receptor on the cell surface (human, UniProt P04629 33-796)
# T1 construct: whole, on cells; PC12-hTrkA: high density; also called hTrkA; huTrkA
# TEST: flow cytometry on TF-1 cells, 4 µg/ml
PROPERTY LABEL: Fold Increase

stdin: # lookup: Fold Increase of BXhVH3VL4 (antibody, human IgG1, V domains shown, Human IgG1 constant regions (IgG1 expression vectors); COS-7 supernatant; also called hVH3/hVL4) VH: EVQLLESGGGLVQPGGSLRLSCAASGFTFSTYTMSWVRQAPGKRLEWVAYISKGGGSTYYPDTVKGRFTISRDNSKNTLYLQMNSLRAEDTAVYYCARGAMYGNDFFYPMDYWGQGTTVTVSS VL: QIVLTQSPATLSLSPGERATLSCSASSSVSYMHWYQQKPGQSPRLLIYTTSNLASGIPSRFSGSGSGTDFTLTISSLEPEDAADYYCHQWSSYPWTFGGGTKLEIK
stdout: 2 fold

stdin: Would you kindly repeat that for BXhVH3VL2 (antibody, human IgG1, V domains shown, Human IgG1 constant regions (IgG1 expression vectors); COS-7 supernatant; also called hVH3/hVL2) VH: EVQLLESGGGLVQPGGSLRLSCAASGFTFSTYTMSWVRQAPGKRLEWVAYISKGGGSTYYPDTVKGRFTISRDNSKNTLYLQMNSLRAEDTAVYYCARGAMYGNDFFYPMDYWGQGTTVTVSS VL: EIVLTQSPATLSLSPGERATLSCSASSSVSYMHWYQQKPGQSPRLLIYTTSNLASGIPSRFSGSGSGTDFTLTISSLEPEDAADYYCHQWSSYPWTFGQGTKLEIK ?
stdout: 2 fold

stdin: Would you kindly repeat that for BXhVH3VL6 (antibody, human IgG1, V domains shown, Human IgG1 constant regions (IgG1 expression vectors); COS-7 supernatant; also called hVH3/hVL6) VH: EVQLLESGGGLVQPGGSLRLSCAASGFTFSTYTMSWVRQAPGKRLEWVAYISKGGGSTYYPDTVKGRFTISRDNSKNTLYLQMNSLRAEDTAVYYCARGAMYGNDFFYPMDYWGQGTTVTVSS VL: EIVLTQSPATLSLSPGEEATLSCSASSSVSYMHWYQQKPGQSPRLLIYTTSNLASGIPSRFSGSGSGTFYTLTISSLEPEDAADYYCHQWSSYPWTFGGGTKLEIK ?
stdout: 1.8 fold

stdin: Would you kindly repeat that for BXhVH1VL3 (antibody, human IgG1, V domains shown, Human IgG1 constant regions (IgG1 expression vectors); COS-7 supernatant; also called hVH1/hVL3) VH: EVKLLESGGGLVQPGGSLRLSCAASGFTFSTYTMSWVRQTPGKGLEWVAYISKGGGSTYYPDTVKGRFTISRDNSKNTLYLQMNSLRAEDTAVYYCAKGAMYGNDFFYPMDYWGQGTTVTVSS VL: QIVLTQSPATLSLSPGERATLSCSASSSVSYMHWYQQKPGQSPRLLIYTTSNLASGIPSRFSGSGSGTFYTLTISSLEPEDFAVYYCHQWSSYPWTFGGGTKLEIK ?
stdout: 1.8 fold

stdin: Would you kindly repeat that for BXhVH2VL6 (antibody, human IgG1, V domains shown, Human IgG1 constant regions (IgG1 expression vectors); COS-7 supernatant; also called hVH2/hVL6) VH: EVQLLESGGGLVQPGGSLRLSCAASGFTFSTYTMSWVRQTPGKRLEWVAYISKGGGSTYYPDTVKGRFTISRDNSKNTLYLQMNSLRAEDTAVYYCAKGAMYGNDFFYPMDYWGQGTTVTVSS VL: EIVLTQSPATLSLSPGEEATLSCSASSSVSYMHWYQQKPGQSPRLLIYTTSNLASGIPSRFSGSGSGTFYTLTISSLEPEDAADYYCHQWSSYPWTFGGGTKLEIK ?
stdout: 1.8 fold

Ref: patent US20110145941A1
